Reported CLint scaled at 1 µM values are given for each entry in this list.
- EXPERIMENT: Liver microsome stability experiment (SD rat)
- Assay type: in vitro ADME
- CONDITIONS: SD, rat, liver microsomes, pH 7.4, SD rat liver microsomes, 0.5 mg/mL, 1 µM; read-out: CL(liver)

// COCCN1CCC(N(Cc2ccc(-c3ccc(C(F)(F)F)cc3)cc2)C(=O)Cn2c(SCc3cccc(F)c3F)cc(=O)c3ccccc32)CC1 [Rilapladib] : CLint scaled at 1 µM value = < 10.8 mL/min/kg

Query O=c1nc(OCc2cc(F)c(Oc3ccnc(C(F)(F)F)c3)c(F)c2)cc2n1C[C@H]1CCCN21 [Comparative Example 1, reference compound] yields CLint scaled at 1 µM of 18.9 mL/min/kg

Documented CLint scaled at 1 µM of O=c1nc(OCc2cc(F)c(Oc3ccnc(C(F)(F)F)c3)c(F)c2)cc2n1C[C@H]1CCN21 [Example 34-R] : < 10.8 mL/min/kg

###

- EXPERIMENT: Liver microsome stability experiment (human)
- Type: in vitro ADME
- CONDITIONS: human, liver microsomes, pH 7.4, Human liver microsomes, 0.5 mg/mL, 1 µM; read-out: CLint(liver)
ATTRIBUTE_MEASURED: CLint scaled at 1 µM (mL/min/kg)

(1) O=c1nc(OCc2cc(F)c(Oc3ccnc(C(F)(F)F)c3)c(F)c2)cc2n1C[C@H]1CCCN21 [Comparative Example 1, reference compound]
(2) COCCN1CCC(N(Cc2ccc(-c3ccc(C(F)(F)F)cc3)cc2)C(=O)Cn2c(SCc3cccc(F)c3F)cc(=O)c3ccccc32)CC1
Return label of the item with the larger CLint scaled at 1 µM. Candidates: 1 , 2 . Field: selected label. Fill in the label of the entry you choose.
2

###

- EXPERIMENT: Liver microsome stability experiment (beagle dog)
- Type: in vitro ADME
- CONDITIONS: beagle, dog, liver microsomes, pH 7.4, Beagle dog liver microsomes, 0.5 mg/mL, 1 µM; read-out: CL(liver)
ATTRIBUTE_MEASURED: CLint scaled at 1 µM (mL/min/kg)

O=c1nc(OCc2cc(F)c(Oc3ccnc(C(F)(F)F)c3)c(F)c2)cc2n1C[C@H]1CCCN21 [Comparative Example 1, reference compound]; 10.5
COCCN1CCC(N(Cc2ccc(-c3ccc(C(F)(F)F)cc3)cc2)C(=O)Cn2c(SCc3cccc(F)c3F)cc(=O)c3ccccc32)CC1 [Rilapladib]; 8.8

###

- EXPERIMENT: Liver microsome stability experiment (beagle dog)
- Type: in vitro ADME
- CONDITIONS: beagle, dog, liver microsomes, pH 7.4, Beagle dog liver microsomes; read-out: Clearance rate classification
ATTRIBUTE_MEASURED: CLint scaled at 1 µM

As a guide, the following entries are already answered.
COCCN1CCC(N(Cc2ccc(-c3ccc(C(F)(F)F)cc3)cc2)C(=O)Cn2c(SCc3cccc(F)c3F)cc(=O)c3ccccc32)CC1; ≤ 13.2 mL/min/kg
O=c1nc(OCc2cc(F)c(Oc3ccnc(C(F)(F)F)c3)c(F)c2)cc2n1C[C@H]1CCN21; ≤ 13.2 mL/min/kg

// next item, CLint scaled at 1 µM requested
The value of CLint scaled at 1 µM measured for the molecule O=c1nc(OCc2cc(F)c(Oc3ccnc(C(F)(F)F)c3)c(F)c2)cc2n1C[C@H]1CCCN21 [Comparative Example 1, reference compound] turned out to be 13.2 to 72.1 mL/min/kg

###

Entries and their CLint scaled at 1 µM
- EXPERIMENT: Liver microsome stability experiment (SD rat)
- Assay type: in vitro ADME
- CONDITIONS: SD, rat, liver microsomes, pH 7.4, SD rat liver microsomes; read-out: Clearance rate classification

The cases that follow already have their CLint scaled at 1 µM on record.
O=c1nc(OCc2cc(F)c(Oc3ccnc(C(F)(F)F)c3)c(F)c2)cc2n1C[C@H]1CCN21; ≤ 23.7 mL/min/kg
O=c1nc(OCc2cc(F)c(Oc3ccnc(C(F)(F)F)c3)c(F)c2)cc2n1C[C@H]1CCCN21 [Comparative Example 1, reference compound]; 23.7 to 129 mL/min/kg

API: the following record is the query input.
The recorded CLint scaled at 1 µM for entry COCCN1CCC(N(Cc2ccc(-c3ccc(C(F)(F)F)cc3)cc2)C(=O)Cn2c(SCc3cccc(F)c3F)cc(=O)c3ccccc32)CC1 equals ≤ 23.7 mL/min/kg

###

- EXPERIMENT: Liver microsome stability experiment (SD rat)
- Format: in vitro ADME
- CONDITIONS: pH 7.4; SD rat liver microsomes, 0.5 mg/mL, 1 µM
- Description: This experiment aimed to evaluate the phase I metabolic stability of the compounds of the present disclosure in liver microsomes of SD rats, beagle dogs, cynomolgus monkeys, and humans. • (1) Buffer preparation: 73.21 g of dipotassium hydrogen phosphate trihydrate and 10.78 g of potassium dihydrogen phosphate were dissolved in 4000 mL of ultrapure water. […]
ATTRIBUTE_MEASURED: half-life at 1 µM

Consider the worked cases shown below.
O=c1nc(OCc2cc(F)c(Oc3ccnc(C(F)(F)F)c3)c(F)c2)cc2n1C[C@H]1CCCN21 [Comparative Example 1, reference compound]; 1.45 h
O=c1nc(OCc2cc(F)c(Oc3ccnc(C(F)(F)F)c3)c(F)c2)cc2n1C[C@H]1CCN21; > 3.11 h

Entry COCCN1CCC(N(Cc2ccc(-c3ccc(C(F)(F)F)cc3)cc2)C(=O)Cn2c(SCc3cccc(F)c3F)cc(=O)c3ccccc32)CC1 , half-life at 1 µM reported as > 3.11 h

###

- EXPERIMENT: Liver microsome stability experiment (cynomolgus monkey)
- Assay type: in vitro ADME
- CONDITIONS: cynomolgus monkey, liver microsomes, pH 7.4, Cynomolgus monkey liver microsomes, 0.5 mg/mL, read-out: CLint(liver)
ATTRIBUTE_MEASURED: CLint scaled at 1 µM (mL/min/kg)

(P) O=c1nc(OCc2cc(F)c(Oc3ccnc(C(F)(F)F)c3)c(F)c2)cc2n1C[C@H]1CCCN21 [Comparative Example 1, reference compound]
(Q) COCCN1CCC(N(Cc2ccc(-c3ccc(C(F)(F)F)cc3)cc2)C(=O)Cn2c(SCc3cccc(F)c3F)cc(=O)c3ccccc32)CC1
When the recorded CLint scaled at 1 µM values are compared, which is smaller: that of P or that of Q ? // respond with label for picked entry
P
(P: 81 mL/min/kg, Q: 461 mL/min/kg)

###

- STUDY_SYSTEM: Lp-PLA2 (Homo sapiens, UniProt Q13093)
- Construct: from tissue; host or cells: pooled (mixed) human plasma
- EXPERIMENT: Inhibitory activity against Lp-PLA2 in human plasma (Thio-PAF assay)
- Assay type: biochemical
- CONDITIONS: 2-thio-PAF substrate, 30 min pre-incubation
pIC50: −log10 of the molar value.
ATTRIBUTE_MEASURED: pIC50

O=c1nc(OCc2ccc(F)cc2)cc2n1CC1CCN21 (centres unmarked) [Example 7]; 7.16
O=c1nc(OCc2ccc(F)c(F)c2)cc2n1CC1CCN21 (centres unmarked) [Example 54]; 7.52
N#Cc1ccc(COc2cc3n(c(=O)n2)CC2CCN32)cc1 (centres unmarked) [Example 28]; 6.05
O=c1nc(OCc2ccc(Oc3ccnc(C(F)(F)F)c3)c(F)c2)cc2n1CC1CCN21 (centres unmarked) [Example 23]; 8.37

(P) O=c1nc(OCc2ccc(Oc3ccc(Cl)c(C(F)(F)F)c3)cc2)cc2n1CC1CCN21 (centres unmarked) [Example 50]
(Q) N#Cc1cc(COc2cc3n(c(=O)n2)CC2CCN32)ccc1Oc1cccc(C(F)(F)F)c1 (centres unmarked) [Example 22]
Lab note: check whether P or Q shows the higher recorded pIC50. Answer by quoting the chosen item's label.
Q
(Q: 8.34, P: 7.90)

###

- STUDY_SYSTEM: Lp-PLA2 (Homo sapiens)
- Sequence (Q13093 22-441): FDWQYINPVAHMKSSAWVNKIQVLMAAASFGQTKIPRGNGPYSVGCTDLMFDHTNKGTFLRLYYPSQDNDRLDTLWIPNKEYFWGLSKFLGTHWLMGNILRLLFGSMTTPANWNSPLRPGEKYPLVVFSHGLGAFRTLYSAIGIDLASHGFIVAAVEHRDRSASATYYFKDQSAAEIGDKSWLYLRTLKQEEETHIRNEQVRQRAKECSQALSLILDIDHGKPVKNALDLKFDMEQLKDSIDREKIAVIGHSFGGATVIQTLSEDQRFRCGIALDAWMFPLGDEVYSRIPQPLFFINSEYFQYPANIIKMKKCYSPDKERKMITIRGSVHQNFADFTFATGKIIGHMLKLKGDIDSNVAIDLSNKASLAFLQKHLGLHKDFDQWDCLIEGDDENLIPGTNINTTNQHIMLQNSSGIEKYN
- EXPERIMENT: Inhibitory activity against Lp-PLA2 in human plasma (Thio-PAF assay)
- CONDITIONS: 2-thio-PAF substrate, 30 min pre-incubation
pIC50: −log10 of the molar value.
ATTRIBUTE_MEASURED: pIC50

Worked set:
N#Cc1cc(COc2cc3n(c(=O)n2)CC2CCN32)ccc1Oc1ccc(Cl)c(C(F)(F)F)c1 (stereo not shown); 8.41
Cc1ccc(Oc2c(F)cc(COc3cc4n(c(=O)n3)CC3CCN43)cc2F)cn1 (stereo not shown); 7.45
O=c1nc(OCc2ccc(Oc3ccc(F)c(F)c3)c(F)c2)cc2n1CC1CCN21 (stereo not shown); 7.90
O=c1nc(OCc2cnc(Oc3ccc(Cl)c(C(F)(F)F)c3)c(F)c2)cc2n1CC1CCN21 (stereo not shown); 7.25
O=c1nc(OCc2cc(F)c(Oc3ccnc(C(F)(F)F)c3)c(F)c2)cc2n1C[C@H]1CCCN21 [Comparative Example 1, reference compound]; 7.79
O=c1nc(OCc2ccc(Oc3cnc(C(F)(F)F)nc3)c(F)c2)cc2n1CC1CCN21 (stereo not shown); 7.67

(P) O=c1nc(OCc2ccc(Oc3ccc(C(F)(F)F)nc3)c(F)c2)cc2n1CC1CCN21 (stereo not shown)
(Q) O=c1nc(OCc2ccc(Oc3ccc(F)c(C(F)(F)F)c3)nc2)cc2n1CC1CCN21 (stereo not shown)
Two entries are listed, P and Q . Which one carries the higher pIC50? Please identify the chosen entry by its label.
P

(A) N#Cc1cc(Oc2ccc(COc3cc4n(c(=O)n3)CC3CCN43)cc2F)ccc1Cl (stereo not shown)
(B) Cn1cc(Oc2c(F)cc(COc3cc4n(c(=O)n3)CC3CCN43)cc2F)cn1 (stereo not shown)
Select the item with the higher value of pIC50 from the options A and B listed. When you have decided, please share the label of that item.
A
